- target-system: UniProt P43351
- Sequence (P43351 whole entry): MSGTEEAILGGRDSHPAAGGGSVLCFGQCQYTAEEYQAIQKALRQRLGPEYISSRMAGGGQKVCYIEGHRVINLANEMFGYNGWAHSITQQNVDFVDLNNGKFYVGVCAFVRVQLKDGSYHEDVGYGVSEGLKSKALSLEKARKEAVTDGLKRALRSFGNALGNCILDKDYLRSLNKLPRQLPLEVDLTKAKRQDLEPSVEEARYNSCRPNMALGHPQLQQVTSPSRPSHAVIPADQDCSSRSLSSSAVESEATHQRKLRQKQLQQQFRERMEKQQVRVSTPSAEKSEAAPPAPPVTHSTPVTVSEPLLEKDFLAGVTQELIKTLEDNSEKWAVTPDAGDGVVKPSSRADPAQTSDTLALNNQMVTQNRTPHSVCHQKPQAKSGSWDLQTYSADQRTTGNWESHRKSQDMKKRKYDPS
- Assay type: functional, biochemical
Calls of active or inactive are those of the source.
Below, each entry is listed alongside its reported AC50.

These solved cases illustrate the format of a correct answer.
smiles-structure	AC50
Cc1sc2cc3c(c(C(=O)c4ccccc4)[n+]2c1C)-c1cccc2cccc-3c12	1.43 µM (active)
CCN(CC)CCCN(C(=O)c1ccco1)c1nc(-c2ccc(Cl)cc2)cs1	19.2 µM (active)
NCC[C@H](O)C(=O)N[C@@H]1C[C@H](N)[C@@H](O[C@H]2O[C@H](CN)[C@@H](O)[C@H](O)[C@H]2O)[C@H](O)[C@H]1O[C@H]1O[C@H](CO)[C@@H](O)[C@H](N)[C@H]1O	5.91 µM (active)

Now turn to the next compound.
Query: Reported AC50, compound CC1CCN(CC(=O)Nc2ccc(N3CCCCCC3)cc2)CC1 : ____
Response: 18 µM (active)
